Value source: the supplement of paper PMC10567573

protein stability index reference
B1: C1orf137 (parent)
chain: RQHHHQSSFPGSLPQETNLTLKVC

- Variants of: B1
- Test Protocol: protein stability index of a GFP-peptide fusion (GPS, HEK-293T) (PSI 1-6); higher = more stable;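 further: lentivirally expressed fusions sorted by FACS into six bins by GFP to DsRed ratio, PSI derived from sequencing read proportions per bin multiplied by bin number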
- Condition Summary: c terminus: a fixed tail appended
Could you respond with only the numeric value?

Biopolymer Sequence	protein stability index
RQHHHQSSAPGSLPQETNLTLKVC	3.97

API: the following record is the query input.
Req: Please report the recorded protein stability index for RQFHHQSSFPGSLPQETNLTLKVC .
Resp: 2.04
